Just for reference, patent US7915316B2 is where these values come from.

# experimental-target: EP4 (Homo sapiens)
# Sequence (P35408 whole entry): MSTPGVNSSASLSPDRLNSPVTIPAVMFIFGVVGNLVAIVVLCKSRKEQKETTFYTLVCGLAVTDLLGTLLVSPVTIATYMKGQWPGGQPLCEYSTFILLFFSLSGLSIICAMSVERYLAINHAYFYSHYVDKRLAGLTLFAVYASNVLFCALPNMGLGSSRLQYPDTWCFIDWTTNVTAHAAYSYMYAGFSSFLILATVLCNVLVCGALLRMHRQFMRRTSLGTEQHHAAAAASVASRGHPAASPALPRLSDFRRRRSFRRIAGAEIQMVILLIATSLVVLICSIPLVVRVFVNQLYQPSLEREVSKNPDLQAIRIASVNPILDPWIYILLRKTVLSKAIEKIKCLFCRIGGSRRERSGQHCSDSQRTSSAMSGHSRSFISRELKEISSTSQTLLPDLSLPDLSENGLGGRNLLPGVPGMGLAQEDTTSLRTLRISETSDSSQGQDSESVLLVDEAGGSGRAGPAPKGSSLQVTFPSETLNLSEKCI
# experiment: EP4 receptor binding (bhEP4 / EP4 Binding)
# conditions: Table 2
observed-property: EC50 (nM)

A. CCCCCC(O)c1ccc(CN(Cc2ccc(OCC(=O)O)cc2)S(=O)(=O)c2cccnc2)cc1 (stereo not shown)
B. CS(=O)(=O)N(CC#CCCCC(=O)O)CCOc1cc(Cl)cc(Cl)c1
Query :: Of A versus B , which is the one with smaller reported EC50? Select an item and report its label.
Result :: A
(A: 1320 nM, B: 4170 nM)

A. CC(C)(C)c1ccc(CN(CCCCCCC(=O)O)S(=O)(=O)c2cccnc2)cc1
B. CC(C)(C)c1ccc(CN(CCCCCCC(=O)O)S(=O)(=O)c2cccs2)cc1
C. CC(C)(C)c1ccc(CN(CCCCCCC(=O)O)S(=O)(=O)c2ccccc2)cc1
Query :: Order by EC50, ascending. Returns: the labels listed in the requested order.
Result :: C, B, A
(C: 373 nM, B: 706 nM, A: 1380 nM)

I. CC(C)(C)c1ccc(CN(Cc2ccc(OCC(=O)O)cc2)S(=O)(=O)c2cccnc2)cc1
II. CS(=O)(=O)N(C/C=C\CCCC(=O)O)CCOc1cc(Cl)cc(Cl)c1
Query :: Of I versus II , which is the one with smaller reported EC50? Select an item and report its label.
Result :: I
(I: 1340 nM, II: 2920 nM)

---

# experimental-target: EP2 (Homo sapiens)
# Sequence (P43116 whole entry): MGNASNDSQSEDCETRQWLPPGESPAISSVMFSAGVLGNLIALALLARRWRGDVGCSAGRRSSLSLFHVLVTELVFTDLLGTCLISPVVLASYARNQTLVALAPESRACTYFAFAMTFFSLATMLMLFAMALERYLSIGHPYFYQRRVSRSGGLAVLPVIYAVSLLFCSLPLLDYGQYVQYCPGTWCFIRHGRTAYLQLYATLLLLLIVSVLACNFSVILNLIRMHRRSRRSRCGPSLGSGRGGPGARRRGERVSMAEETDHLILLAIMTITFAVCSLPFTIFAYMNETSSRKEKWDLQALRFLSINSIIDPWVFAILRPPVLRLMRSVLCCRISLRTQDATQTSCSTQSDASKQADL
# experiment: Ca2+ signal, EP2
# Format: cell-based
pEC50: −log10 of the molar value.
observed-property: pEC50

                                   molecule  reading
0  CC(C)(C)c1ccc(CN(Cc2ccc(OCC(=O)O)cc2)S(=O)(=O)c2cccnc2)cc1     7.70
1  CC(C)(C)c1ccc(CN(CCCCCCC(=O)O)S(=O)(=O)c2ccccc2)cc1     6.02
2  CS(=O)(=O)N(CC#CCCCC(=O)O)CCOc1cc(Cl)cc(Cl)c1     5.90

A. CC(C)(C)c1ccc(CN(CCCCCCC(=O)O)S(C)(=O)=O)cc1
B. CCCCCC(O)c1ccc(CN(CC#CCCCC(=O)O)S(C)(=O)=O)cc1 (stereo not drawn)
Query :: Of A versus B , which is the one with smaller reported pEC50? Select an item and report its label.
Result :: A

P. CC(C)(C)c1ccc(CN(CCCCCCC(=O)O)S(=O)(=O)c2cccnc2)cc1
Q. CCCCCC(O)c1ccc(CN(Cc2ccc(OCC(=O)O)cc2)S(=O)(=O)c2cccnc2)cc1 (stereo not drawn)
Query :: Of P versus Q , which is the one with smaller reported pEC50? Select an item and report its label.
Result :: P

P. CS(=O)(=O)N(C/C=C\CCCC(=O)O)CCOc1cc(Cl)cc(Cl)c1
Q. CC(C)(C)c1ccc(CN(CCCCCCC(=O)O)S(=O)(=O)c2cccs2)cc1
Query :: Of P versus Q , which is the one with smaller reported pEC50? Select an item and report its label.
Result :: P
(P: 5.53, Q: 5.95)

---

# experimental-target: EP2 (Homo sapiens)
# experiment: EP2 receptor binding (bhEP2 / EP2 Binding)
# conditions: Table 2
observed-property: EC50 (nM)

>>> df
                                   compound  observed_property  unit  reading
0  CC(C)(C)c1ccc(CN(CCCCCCC(=O)O)S(=O)(=O)c2ccccc2)cc1               EC50    nM     1540

A. CCCCCC(O)c1ccc(CN(CC#CCCCC(=O)O)S(C)(=O)=O)cc1 (centres unmarked)
B. CCCCCC(O)c1ccc(CN(Cc2ccc(OCC(=O)O)cc2)S(=O)(=O)c2cccnc2)cc1 (centres unmarked)
C. CS(=O)(=O)N(C/C=C\CCCC(=O)O)CCOc1cc(Cl)cc(Cl)c1
D. CC(C)(C)c1ccc(CN(Cc2ccc(OCC(=O)O)cc2)S(=O)(=O)c2cccnc2)cc1
Query :: List from greatest to least EC50. Returns: the labels listed in the requested order.
Result :: A, C, B, D
